# TARGET: 11β-hsd-1 enzyme (Homo sapiens)
# ASSAY SUMMARY: 11β-hsd-1 enzyme assay, percentage of inhibition (3H-cortisone to cortisol, radio-HPLC)
# Format: biochemical
# RUN CONDITIONS: compound at 0.1 uM; read-out: % inh @ 0.1 uM
Please enter class 1 where inhibition at 0.1 µM is greater than or equal to 80%, and class 0 where it is lower.

[[record]]
molecule = "Cc1cccc(NS(=O)(=O)c2ccc(-c3cccc(Cl)c3)c(C)c2)n1 [Example 213]"
assigned_label = "class 0"

[[record]]
molecule = "COc1ccc(-c2ccc(S(=O)(=O)Nc3cccc(C)n3)cc2C)cc1 [Example 216]"
assigned_label = "class 0"

[[record]]
molecule = "Cc1cccc(NS(=O)(=O)c2ccc(-c3ccc(C#N)c(Cl)c3)cc2)n1 [Example 274]"
assigned_label = "class 1"

[[record]]
molecule = "Cc1cccc(NS(=O)(=O)c2ccc(-c3cccc(C#N)c3)c(C)c2)n1 [Example 220]"
assigned_label = "class 0"

[[record]]
molecule = "Cc1cccc(NS(=O)(=O)c2ccc(-c3ccc(F)cc3)nc2)n1 [Example 268]"
assigned_label = "class 0"


Lookup: State whether the measured inhibition at 0.1 µM reaches 80%, counting equality as reaching it, for Cc1cccc(NS(=O)(=O)c2ccc(-c3ccc4c(c3)OCCO4)cc2C)n1 [Example 206]
Found: class 1

Lookup: Is the recorded value of inhibition at 0.1 µM equal to or greater than 80% for this molecule? Cc1cccc(NS(=O)(=O)c2sc3ccc(C#N)cc3c2C)n1 [Example 295]
Found: class 1

Lookup: inhibition at 0.1 µM >= 80% for Cc1cccc(NS(=O)(=O)c2ccc(-c3ccc(N4CCOCC4)cc3)cc2)n1 [Example 251] ?
Found: class 1

Lookup: Please indicate if the recorded inhibition at 0.1 µM for COc1ccc(C)nc1NS(=O)(=O)c1ccc(-c2ccc(C)cc2)cc1 [Example 278] meets or exceeds 80%.
Found: class 0

Lookup: Entry Cc1cccc(NS(=O)(=O)c2ccc(-c3ccc(F)cc3C)cc2C)n1 [Example 204] : is its inhibition at 0.1 µM no less than 80%?
Found: class 1

###

# TARGET: 11β-hsd-1 enzyme (Homo sapiens, UniProt P28845)
# Sequence (P28845 whole entry, species assumed): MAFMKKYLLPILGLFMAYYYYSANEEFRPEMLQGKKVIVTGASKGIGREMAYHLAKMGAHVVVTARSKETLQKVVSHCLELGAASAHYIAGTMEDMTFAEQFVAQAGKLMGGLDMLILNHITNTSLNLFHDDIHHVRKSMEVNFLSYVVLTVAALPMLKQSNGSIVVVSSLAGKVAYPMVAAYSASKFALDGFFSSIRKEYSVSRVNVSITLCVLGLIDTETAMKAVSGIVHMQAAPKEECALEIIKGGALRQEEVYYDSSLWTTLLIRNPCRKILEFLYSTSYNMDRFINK
# ASSAY SUMMARY: 11β-hsd-1 enzyme assay, percentage of inhibition (3H-cortisone to cortisol, radio-HPLC)
# Format: biochemical
# RUN CONDITIONS: 0.1 uM; read-out: % inh @ 0.1 uM
// classify(record): look up inhibition at 0.1 µM in ranges LOW = under 30%, MID = from 30% up to 80%, HIGH = 80% and over

[[record]]
compound = "Cc1c(Cl)cccc1S(=O)(=O)Nc1cccc(CC(=O)N2CCCCC2)n1 [Example 9]"
assigned_label = "MID"


Continue with the compound presented below.
Lookup: Which of the defined bands does the recorded inhibition at 0.1 µM of Cc1c(Cl)cccc1S(=O)(=O)Nc1cccc(CC(=O)N(CCC#N)C2CC2)n1 [Example 29] sit within?
Found: LOW

###

# TARGET: 11β-hsd-1 enzyme (Homo sapiens)
# ASSAY SUMMARY: 11β-hsd-1 enzyme assay, Kiapp determination (3H-cortisone to cortisol, radio-HPLC)
# Type: biochemical
# RUN CONDITIONS: apparent Ki, 11β-hsd-1 enzyme; read-out: Ki app
Recorded measurements of pKi, one per entry
Just the number, please; pKi means minus log10 of the concentration in mol/L.

Reference set, count: 5
[[record]]
compound = "Cc1cccc(NS(=O)(=O)c2ccc(-c3ccc(C#N)cc3)c(C(F)(F)F)c2)n1 [Example 285]"
quantity = "pKi"
observed_measurement = 8.54

[[record]]
compound = "Cc1cccc(NS(=O)(=O)c2ccc(-c3ccc(C#N)cc3)c(C)c2)n1 [Example 281]"
quantity = "pKi"
observed_measurement = 8.00

[[record]]
compound = "COc1ccc(-c2ccc(S(=O)(=O)Nc3cccc(C)n3)c(C)c2)cc1C [Example 205]"
quantity = "pKi"
observed_measurement = 7.72

[[record]]
compound = "Cc1cccc(NS(=O)(=O)c2ccc(-c3ccc(C#N)c(C)c3)cc2)n1 [Example 273]"
quantity = "pKi"
observed_measurement = 8.28

[[record]]
compound = "Cc1cccc(NS(=O)(=O)c2ccc(-c3cc(Cl)cc(Cl)c3)c(C)c2)n1 [Example 222]"
quantity = "pKi"
observed_measurement = 8.00


Lookup: Any idea what its pKi is? The compound is CCOc1ccccc1-c1ccc(S(=O)(=O)Nc2cccc(C)n2)cc1C [Example 232]
Found: 6.18

Lookup: Entry Cc1cccc(NS(=O)(=O)N2CCC(c3cccc(F)c3)CC2)n1 [Example 309] has what pKi?
Found: 8.12

Lookup: What value of pKi has been recorded for this entry: Cc1cccc(NS(=O)(=O)c2ccc(-c3ccc(CO)cc3)c(C)c2)n1 [Example 223]
Found: 6.49

Lookup: Look at this compound and give its reported pKi. Cc1cccc(NS(=O)(=O)c2ccc(-c3ccc(F)c(F)c3)cc2C)n1 [Example 208]
Found: 8.17

Lookup: For the compound Cc1cccc(NS(=O)(=O)c2ccc(-c3ccc(F)cc3)c(C)c2)n1 [Example 280] , what pKi is on record?
Found: 7.82

Lookup: Field request: pKi | item: Cc1cccc(NS(=O)(=O)c2ccc(-c3ccc(F)cc3C)cc2)n1 [Example 253]
Found: 7.48

meta.source: patent US20050148631A1
